systemName: Glutamate NMDA receptor
methodSummary: Inhibition of [3H]MK-801 binding to N-methyl-D-aspartate glutamate receptor in rat brain cortical membranes.
pKi: −log10 of the molar value.
Listed below: pKi values for each entry.
quantityKind: pKi

INSERT INTO results (chemicalsmiles, numericresult) VALUES
  ('CS[C@H](C)CN1CC[C@]2(C)c3cc(O)ccc3C[C@@H]1[C@H]2C', 6.39),
  ('CO[C@@H](C)CN1CC[C@@]2(C)c3ccc(O)cc3C[C@@H]1C2(C)C', 8.15),
  ('CCCN1CC[C@@]2(C)c3cc(O)ccc3C[C@H]1[C@H]2C', 5.55),
  ('CO[C@H](C)CN1CC[C@@]2(C)c3ccc(O)cc3C[C@@H]1C2(C)C', 8.35),
  ('CO[C@H](C)CN1CC[C@@]2(C)c3cc(O)ccc3C[C@H]1[C@@H]2C', 4.12),
  ('CS[C@@H](C)CN1CC[C@]2(C)c3cc(O)ccc3C[C@@H]1[C@H]2C', 7.08),
  ('CCC[C@H](CN1CC[C@]2(C)c3cc(O)ccc3C[C@@H]1[C@H]2C)OC', 5.74),
  ('CO[C@H](C)CN1CC[C@@]2(C)c3cc(O)ccc3C[C@@H]1C2(C)C', 7.91),
  ('CO[C@@H](C)CN1CC[C@@]2(C)c3cc(O)ccc3C[C@@H]1C2(C)C', 8.25),
  ('CS[C@@H](C)CN1CC[C@]2(C)c3cc(O)ccc3C[C@@H]1[C@@H]2C', 6.65);

The reported measurements were obtained from ChEMBL document CHEMBL1130212.
